test: Effect on NF-kappaB expressed in Jurkat 5.1 cells assessed as inhibition of TNF-alpha-induced HIV1-LTR transactivation preincubated for 15 mins by luciferase gene reporter assay
Format: cell-based
pIC50: −log10 of the molar value.
measured endpoint: pIC50

smiles code | measured endpoint | observed
CCCCCCCCC/C=C/CCCc1ccc(O)c(O)c1 | pIC50 | 5.30
